# Assay Name: DSC of DSPG bilayers with inhibitor
# Type: physicochemical
# Cond: heating
Entries and their measured Broadening of main transition peak ΔΤ1/2 compared to pure DSPG follow.

Here are 3 compounds together with their reported answers.
1. CC(C)=CCCC(C)=CCNCCNC(C)(C)C12CC3CC(CC(C3)C1)C2 [Compound 12] : 0.2–1.6 °C
2. CCC1(NCCNCC=C(C)CCC=C(C)C)C2CC3CC(C2)CC1C3 (stereo not drawn) [Compound 8c] : 0.2–1.6 °C
3. CC(C)=CCCC(C)=CCNCCNC1(C)C2CC3CC(C2)CC1C3 (stereo not drawn) [Compound 8b] : 0.2–1.6 °C

Query: Which Broadening of main transition peak ΔΤ1/2 compared to pure DSPG is reported for this compound? CCCC1(NCCNCC=C(C)CCC=C(C)C)C2CC3CC(C2)CC1C3 (stereo not drawn) [Compound 8d]
Result: 0.2–1.6 °C

Query: Which Broadening of main transition peak ΔΤ1/2 compared to pure DSPG is reported for this compound? CCCCC1(NCCNCC=C(C)CCC=C(C)C)C2CC3CC(C2)CC1C3 (stereo not drawn) [Compound 8e]
Result: 2.7 °C

Query: Which Broadening of main transition peak ΔΤ1/2 compared to pure DSPG is reported for this compound? CCCCCCC1(NCCNCC=C(C)CCC=C(C)C)C2CC3CC(C2)CC1C3 (stereo not drawn) [Compound 8f]
Result: 0.2–1.6 °C

Query: Which Broadening of main transition peak ΔΤ1/2 compared to pure DSPG is reported for this compound? CC(C)=CCCC(C)=CCNCCNC1(c2ccccc2)C2CC3CC(C2)CC1C3 (stereo not drawn) [Compound 8h]
Result: 4.4 °C

Query: Which Broadening of main transition peak ΔΤ1/2 compared to pure DSPG is reported for this compound? CC(C)=CCC/C(C)=C/CNCCNC1C2CC3CC(C2)CC1C3 (stereo not drawn) [Compound 8a, reference compound]
Result: 0.2–1.6 °C

Query: Which Broadening of main transition peak ΔΤ1/2 compared to pure DSPG is reported for this compound? CC(C)=CCCC(C)=CCNCCNC1(Cc2ccccc2)C2CC3CC(C2)CC1C3 (stereo not drawn) [Compound 8g]
Result: 0.2–1.6 °C
